- Test system: NCI-H460
- MEASUREMENT NOTES: NCI tumour cell line growth inhibition, 48 h
Active and inactive are the calls of the source. No stated cut-off is given here; in the data, active = GI50 up to about 1.1 µM and inactive = higher.
Listed below: GI50 values for each entry.

Worked examples follow.
1. O=C1N(c2ccccc2)C(=S)/C(=C/c2ccc(Cl)cc2)N1c1ccc(Cl)cc1: > 100 µM (inactive)
2. CC1(Br)C(=O)NC(=O)N(C2CC(N=[N+]=[N-])C(CO)O2)C1N=[N+]=[N-] (stereo not given): > 100 µM (inactive)
3. Cc1c(Cl)ccc2c1NC(=O)C2(O)CC(=O)c1cccc2ccccc12 (stereo not given): 59.7 µM (inactive)
4. C=CCOC(=O)N1c2ccc(O)cc2[C@@]23O[C@@]24[C@@H]1C#C/C=C\C#C[C@]3(O)C(OC)(OC)C[C@@H]4C: 24.4 µM (inactive)
5. Cc1cc(C)cc(NC(=O)CCC(=O)C2CCC/C2=N\NC(=O)C(=O)NN)c1 (stereo not given): > 100 µM (inactive)

GI50 for Nc1ccn([C@H]2CO[C@@H](CO)[C@@H]2O)c(=O)n1 ? > 100 µM (inactive)

GI50 for CCOC(=O)N/N=C(/OCC)c1ccccc1 ? > 100 µM (inactive)

GI50 for O=C1C(=Cc2cccc(O)c2)N=C(c2ccccc2)N1n1c(-c2ccccc2)nc2ccccc2c1=O ? 23.6 µM (inactive)

GI50 for c1ccc2c(c1)SP1Sc3ccccc3P21 (stereo not given) ? > 100 µM (inactive)

GI50 for CCC/N=C1\S/C(=C/c2ccc(OC)c(OC)c2)C(=O)N1c1ccccc1 ? 61 µM (inactive)

GI50 for Cn1c2ccccc2c(=NNc2ccccc2C(=O)O)c2ccccc21 ? 13.2 µM (inactive)

GI50 for Cc1cccc(C(C)(C)C)c1NC(=O)C(=O)C(C(=O)/C=C\c1ccccc1)C1OC(=O)c2ccccc21 (stereo not given) ? > 100 µM (inactive)

GI50 for CCCC[C@@H](C)/C=C1\CN2CCC[C@H]2[C@@](C)(O)[C@@H]1O ? 16.7 µM (inactive)

GI50 for O=C1c2ccccc2-c2[nH]c3cn[nH]c(=O)c3c21 ? 64.9 µM (inactive)

GI50 for C=C(C(=O)OC)[C@@H]1C[C@@H](OC(C)=O)C2=C[C@H](C[C@@]3(C)O[C@@H]3C3=CC(C)=C(O3)[C@H]1OC(C)=O)OC2=O ? 23.6 µM (inactive)

GI50 for CC1CCC(C(C)C2C(O)CC3C4CC=C5CC(O)CCC5(C)C4CCC32C)NC1 (stereo not given) ? 48 µM (inactive)

GI50 for COc1ccc(/C=C2\CCC(CNc3ccc(OC)cc3)C2=O)cc1 (stereo not given) ? 47.8 µM (inactive)

GI50 for N#CC1=C(O)NC(O)=C(C#N)C1c1ccc(C2C(C#N)=C(O)NC(O)=C2C#N)cc1 ? 46.5 µM (inactive)

GI50 for CCCCCCCCCCCCCCCCCC(=O)Nc1ccn(C2OC(CO)C(O)C2O)c(=O)n1 (stereo not given) ? 2.69 µM (inactive)

GI50 for Nc1ccc2c(c1)C(=O)N(O)C2=O ? > 100 µM (inactive)

---

Listed below: GI50 values for each entry.
- System: HOP-92
- MEASUREMENT NOTES: NCI tumour cell line growth inhibition, 48 h
Calls of active or inactive are those of the source. Cut-off read from the data, not from the text of the source: active = GI50 up to about 1.1 µM and inactive = higher.

Worked examples follow.
1) COc1ccc(/C=c2/sc3n(c2=O)NC2(CCC(C)CC2)NN=3)cc1 (stereo not given): 34.9 µM (inactive)
2) CC1OC(O[C@H]2C3C=CO[C@@H](OC4OC(CO)C(O)C(O)C4O)C3[C@@]3(COC(=O)/C=C/c4ccccc4)O[C@@H]23)C(O)C(O)C1O (stereo not given in full): > 100 µM (inactive)
3) C=C1C[C@@H](O)[C@@H](Br)C(C)(C)[C@]12CCC(C)(Cl)C(Br)C2 (stereo not given in full): 24.2 µM (inactive)
4) CC1(C)CC2(C)OC(=N)C1(C#N)C2(C#N)C#N (stereo not given): 1.57 µM (inactive)

State its GI50 on HOP-92: C1=C2/CC[C@H](Sc3ccccc3)C2C2(CCCCC/1)OCCO2 (stereo not given in full) 3.72 µM (inactive)

---

Listed below: GI50 values for each entry.
- System: SNB-78
- MEASUREMENT NOTES: NCI tumour cell line growth inhibition, 48 h
Activity calls are given as the source filed them. Rule as the data show it: active = GI50 up to about 1.1 µM and inactive = higher.

Worked examples follow.
1. O=C1CCC(c2ccccc2)C(O)(C(=O)O)C1 (stereo not given): > 100 µM (inactive)
2. CCc1cccc(C)c1NC(=O)CC(=O)NNC(N)=S: > 100 µM (inactive)
3. Cc1c(Cl)ccc2c1NC(=O)C2(O)CC(=O)c1cccc2ccccc12 (stereo not given): > 100 µM (inactive)
4. [O-][S+]1CSSC1: 20.3 µM (inactive)

Now turn to the next compound.
GI50 for O=C1CC(c2ccccc2)=Nc2ccccc2N1 ? > 100 µM (inactive)

---

- System: UACC-62
- MEASUREMENT NOTES: NCI tumour cell line growth inhibition, 48 h
Activity calls are given as the source filed them. No stated cut-off is given here; in the data, active = GI50 up to about 1.1 µM and inactive = higher.
Select the correct class. Options are active, inactive and nothing else.

1. O=C1NC2(CCCC2)C2CCCCC12O (configuration not stated): inactive
2. CC(C)CCNC(=O)c1ccc(CNC(=O)/C=C/c2cccc(Oc3ccccc3)c2)cc1: inactive
3. O=C(/C=C(\N=P(c1ccccc1)(c1ccccc1)c1ccccc1)C(F)(F)C(F)(F)C(F)(F)C(F)(F)C(F)(F)C(F)(F)C(F)(F)F)c1ccccc1: inactive
4. CC1=C(/C=C/C2=CC(=C\C(=O)O)/CC(C3=C(C)CCCC3(C)C)C2)C(C)(C)CCC1 (configuration not stated): inactive
5. C[C@@H](c1ccccc1)C(CC#N)[C@H]1CCC[C@]1(O)C#Cc1ccc2c(c1)OCO2 (some centres not stated): inactive

Each compound tested received a call. Report the one for CCOC(=O)C(=O)C(=O)NN(C)C1=NCCN1 . inactive

Each compound tested received a call. Report the one for CC(C)(C)c1cc(O)ccc1O . inactive

---

- Tested on: UACC-62
- MEASUREMENT NOTES: NCI tumour cell line growth inhibition, 48 h
Calls of active or inactive are those of the source. Rule as the data show it: active = GI50 up to about 1.1 µM and inactive = higher.
Select the correct class. Options are YES for active, NO for inactive and nothing else.

1) NCCCCN(CCCN)C(=O)OCc1ccccc1: NO

Each molecule tested received a call. Report the one for O=C1c2ccccc2-c2[nH]c3cn[nH]c(=O)c3c21 . NO

Each molecule tested received a call. Report the one for NS(=O)(=O)c1nnc(NS(=O)(=O)c2ccc(F)cc2)s1 . NO

Each molecule tested received a call. Report the one for C#C[C@]1(O)CC[C@H]2[C@@H]3CCC4=C/C(=N/OC(=O)c5cccc6c(=O)c7ccccc7[nH]c56)CCC4[C@H]3CC[C@@]21CC (some centres undefined) . NO

Each molecule tested received a call. Report the one for O=c1[nH]nc(-c2ccccc2)c2[nH]c3c(c12)CCCc1ccccc1-3 . NO

Each molecule tested received a call. Report the one for CN(C)c1ccc2c(=O)c3ccccc3oc2n1 . NO

Each molecule tested received a call. Report the one for Cc1ccc(S(=O)(=O)N(/N=C/C=C/c2ccccc2)c2nnc(-c3ccccc3)c(-c3ccccc3)n2)cc1 . NO

Each molecule tested received a call. Report the one for CC(=O)O[C@@H]1CO[C@H]2O[C@H]3[C@@H](C(C=O)=C[C@H](O)[C@@H]4C5=C(C(C)C)CC[C@]5(C)CC[C@@]34C)[C@@]2(O)C1=O . YES

Each molecule tested received a call. Report the one for C/C(=N\Nc1nc2ccccc2[nH]1)c1cnccn1 . YES

---

- Tested on: UACC-62
- MEASUREMENT NOTES: NCI tumour cell line growth inhibition, 48 h
Activity calls are given as the source filed them. Rule as the data show it: active = GI50 up to about 1.1 µM and inactive = higher.
Select the correct class. Options are yes for active, no for inactive and nothing else.

These recorded examples may help you get a feel for the data.
1) CC1(c2ccccc2Cl)C(C#N)C(=O)NC(=O)C1C#N (stereo unspecified): no
2) Cc1cccc(C(C)C)c1NC(=O)CC1Sc2ccccc2NC1=O (stereo unspecified): no

Each compound tested received a call. Report the one for COC(=O)C1C2CC3C(OC(=O)C31)C2I (stereo unspecified) . no

Each compound tested received a call. Report the one for Cc1cccc2c(N)c3cccc(C(=O)NCC[N+](C)(C)Cc4ccc(S(C)(=O)=O)cc4)c3nc12 . no

Each compound tested received a call. Report the one for COc1c(C)c2c(c(O)c1C/C=C(\C)CCC(=O)O)C(=O)OC2 . yes

---

- System: XF498
- MEASUREMENT NOTES: NCI tumour cell line growth inhibition, 48 h
The source made the active and inactive calls. No stated cut-off is given here; in the data, active = GI50 up to about 1.1 µM and inactive = higher.
Select the correct class. Options are active, inactive and nothing else.

These recorded examples may help you get a feel for the data.
1) COc1ccc([Se]c2ccc(OC)cc2)cc1: inactive
2) CC(=O)O[C@]12CCCCCC1C1(O)C(O)CCC[C@H]12 (stereo partly specified): inactive
3) COc1cccc(/C=C(\NC(C)=O)c2nc3cc(Cl)ccc3[nH]2)c1: inactive
4) CCCCCCCCCCCC(=O)OC(COC(N)=O)COc1ccc(Cl)cc1 (stereo unspecified): inactive
5) O=C1CCC[C@]2(CCCC(=O)N2)C1: inactive
6) COc1cc2c3cc1Oc1c(OC)c(OC)cc4c1[C@@H](Cc1ccc(O)c(c1)Oc1ccc(cc1)C[C@@H]3N(C)CC2)N(C)CC4.c1ccccc1: inactive

API: the following record is the query input.
Each compound tested received a call. Report the one for O=C(OCN1C(=O)C2C3C=CC(C2C1=O)C1C2C(=O)N(COC(=O)C4CCCN4)C(=O)C2C31)C1CCCN1 (stereo unspecified) . inactive

Provenance of the data: ChEMBL document CHEMBL1201862
